// data source = ChEMBL document CHEMBL4270537

Recorded pIC50 values for a group of molecules are listed next.
Biological target: Serine/threonine-protein kinase B-raf (Homo sapiens)
Sequence (P15056 whole entry): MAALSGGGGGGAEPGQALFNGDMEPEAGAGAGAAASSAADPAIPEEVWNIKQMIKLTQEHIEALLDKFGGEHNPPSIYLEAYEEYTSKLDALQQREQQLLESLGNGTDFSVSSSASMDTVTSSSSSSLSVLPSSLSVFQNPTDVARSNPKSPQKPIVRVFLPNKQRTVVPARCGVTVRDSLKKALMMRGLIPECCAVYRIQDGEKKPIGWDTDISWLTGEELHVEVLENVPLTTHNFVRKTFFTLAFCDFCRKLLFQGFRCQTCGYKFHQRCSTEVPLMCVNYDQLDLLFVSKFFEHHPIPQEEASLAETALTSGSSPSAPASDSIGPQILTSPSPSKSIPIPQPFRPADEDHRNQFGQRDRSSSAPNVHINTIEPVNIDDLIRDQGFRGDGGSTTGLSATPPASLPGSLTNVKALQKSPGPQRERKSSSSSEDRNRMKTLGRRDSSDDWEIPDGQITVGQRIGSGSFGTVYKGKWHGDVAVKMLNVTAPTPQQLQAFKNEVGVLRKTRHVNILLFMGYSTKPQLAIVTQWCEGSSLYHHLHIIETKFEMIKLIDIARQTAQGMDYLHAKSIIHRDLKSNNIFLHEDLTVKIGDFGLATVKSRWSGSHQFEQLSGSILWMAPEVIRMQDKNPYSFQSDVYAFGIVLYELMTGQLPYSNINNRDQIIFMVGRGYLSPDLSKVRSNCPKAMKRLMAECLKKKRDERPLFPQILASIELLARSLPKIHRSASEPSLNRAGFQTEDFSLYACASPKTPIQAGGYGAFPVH
Experiment: Inhibition of recombinant human full length GST-tagged wild type BRAF expressed in baculovirus expression system using recombinant human full length N-terminal His-tagged MEK1 as substrate preincubated for 1 hr followed by substrate addition measured after 25 mins
pIC50: −log10 of the molar value.

Solved cases (7 shown):
molecule="Cc1ccc(C2=NN(C(=S)Nc3ccccc3)C(c3ccc4c(c3)OCCO4)C2)cc1C (stereo not drawn)" result=4.31
molecule="Fc1ccc(C2=NN(C(=S)Nc3ccccc3)C(c3ccc4c(c3)OCCO4)C2)cc1 (stereo not drawn)" result=4.64
molecule="O=[N+]([O-])c1ccc(C2=NN(C(=S)Nc3ccccc3)C(c3ccc4c(c3)OCCO4)C2)cc1 (stereo not drawn)" result="< 3.70"
molecule="COc1cccc(C2=NN(C(=S)Nc3ccccc3)C(c3ccc4c(c3)OCCO4)C2)c1 (stereo not drawn)" result="< 3.70"
molecule="S=C(Nc1ccccc1)N1N=C(c2ccc(Cl)cc2)CC1c1ccc2c(c1)OCCO2 (stereo not drawn)" result="< 3.70"
molecule="S=C(Nc1ccccc1)N1N=C(c2ccc(Br)cc2)CC1c1ccc2c(c1)OCCO2 (stereo not drawn)" result=4.73
molecule="Cc1ccc(C2=NN(C(=S)Nc3ccccc3)C(c3ccc4c(c3)OCCO4)C2)cc1 (stereo not drawn)" result="< 3.70"

Kindly consider the entry below.
QUERY: Need pIC50, item COc1ccccc1C1=NN(C(=S)Nc2ccccc2)C(c2ccc3c(c2)OCCO3)C1 (stereo not drawn)
RESULT: < 3.70
